The origin of these recorded values is patent EP2662081A1.

Measured EC50 of individual entries
- Measurement target: human recombinant Cdk5/p35 heterodimer (Homo sapiens)
- Construct: purchased Invitrogen (Life Technologies)
- Sequence (Q00535 whole entry): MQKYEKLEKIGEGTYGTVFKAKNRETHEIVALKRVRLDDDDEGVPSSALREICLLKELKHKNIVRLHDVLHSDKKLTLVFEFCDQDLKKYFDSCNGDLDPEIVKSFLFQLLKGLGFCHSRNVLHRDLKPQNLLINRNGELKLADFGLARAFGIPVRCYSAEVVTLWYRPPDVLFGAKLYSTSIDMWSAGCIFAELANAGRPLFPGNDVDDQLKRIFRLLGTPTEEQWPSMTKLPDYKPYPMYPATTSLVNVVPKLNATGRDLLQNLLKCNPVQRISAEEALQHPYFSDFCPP
- Sequence (Q15078 whole entry partner): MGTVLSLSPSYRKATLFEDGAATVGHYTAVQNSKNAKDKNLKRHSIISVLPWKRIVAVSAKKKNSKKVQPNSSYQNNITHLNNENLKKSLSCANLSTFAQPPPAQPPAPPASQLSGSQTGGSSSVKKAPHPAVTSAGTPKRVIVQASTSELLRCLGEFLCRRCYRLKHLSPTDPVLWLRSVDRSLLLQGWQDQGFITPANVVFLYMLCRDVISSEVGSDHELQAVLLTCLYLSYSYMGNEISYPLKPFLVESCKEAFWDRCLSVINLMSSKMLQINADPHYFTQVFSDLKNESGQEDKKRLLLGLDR
- Assay protocol: Cdk5 assay (Z'-LYTE FRET enzymatic activity)
- Format: biochemical
- Condition details: 10 nM enzyme, 12.5 µM ATP, 2 µM Ser/Thr 12 peptide, 60 min at room temperature; concentration in M units; read-out: Cdk5 inhibition pEC50 average (converted)
- Method: The enzymatic activity of Cdk5 was determined with a commercial system based on the Z'-LYTE® technology, available from Life Technologies (Carlsbad, CA, USA), using human recombinant Cdk5/p35 heterodimer, also available from Invitrogen as the enzyme source. This technology utilizes the fluorescence resonance energy transfer ("FRET") process between fluorescein and coumarin. […] After that, fluorescence intensity is recorded, monitoring emission at both 445 and 520 nm, upon excitation at 400 nm. […]
// note: answer is a bare numeric in nM

EC50 recorded for this compound, CN1C(=N)NCC1c1c(C(=O)O)[nH]c2cc(O)c(Br)cc12 (stereo not shown) , is 95.5

More entries:
So, CN1C(N)=NCC1c1c(C(=O)O)[nH]c2ccccc12 (stereo not shown) ? Its EC50 was 933

EC50 reading for CN1C(=N)NCC1c1c(C(=O)O)[nH]c2ccc(Br)cc12 (stereo not shown) : 1100

Given item CN1C(=N)N(C)C(c2c(C(=O)O)[nH]c3cc(O)c(Br)cc23)C1O (stereo not shown) , the value recorded as its EC50 is 49

Recorded EC50 (compound CN1CC(c2c(C(=O)O)[nH]c3cc(O)c(Br)cc23)N(C)C1=N (stereo not shown) ): 74.1

Measured EC50, CN1CC(c2c(C(=O)O)[nH]c3ccc(Br)cc23)N(C)C1=N (stereo not shown) : 2820

Entry under test: CN1C(=N)N(C)C(c2c(C(=O)O)[nH]c3ccc(Br)cc23)C1O (stereo not shown) . Its EC50 was 3090
